I'd appreciate it if you could supply log10 of Ki values for the items below.
TESTED SYSTEM: Adenosine A2 receptor (Rattus norvegicus, UniProt P29276+P30543)
METHOD DESCRIPTION: Antagonism of N-ethylcarboxamido adenosine-stimulated adenylate cyclase associated with stimulation of Adenosine A2 receptor of rat PC12 membranes
Assay type: functional, cell membranes, Membrane
PROTOCOL CONDITIONS: pc-12
// stored as log10 of Ki expressed in µM

For each of the compounds below, state log10 of Ki.
1. CCCN1C(=O)CNC(=O)c2c1ncn2Cc1ccccc1
2. Cn1cnc2c1c(=O)[nH]c(=O)n2C
3. CC(C)Cn1c(=O)n(C)c(=O)c2c1ncn2Cc1ccccc1
4. CCCN1CC(=O)N(CCC)c2ncn(C)c2C1=O
5. CCN1CC(=O)N(CC)c2ncn(C)c2C1=O
6. CC(C)Cn1c(=O)n(C)c(=O)c2nc[nH]c21
7. Cn1c(=O)c2c(ncn2Cc2ccccc2)n(C)c1=O

(A)
[2.21, 2.40, 0.88, 2.23, 2.41, 0.80, 0.75]

====

TESTED SYSTEM: Adenosine A2 receptor (Rattus norvegicus, UniProt P29276+P30543)
METHOD DESCRIPTION: Binding affinity for Adenosine A2 receptor from rat striatum using [3H]NECA as radioligand
Format: protein assay
ENDPOINT NAME: Ki

CCCn1c(=O)c2c(ncn2Cc2ccccc2)n(CCC)c1=O	3.8 µM

For each of the compounds below, state Ki.
1. CC(C)Cn1c(=O)n(C)c(=O)c2nc[nH]c21
2. CCN1CC(=O)N(CC)c2ncn(Cc3ccccc3)c2C1=O
3. CCCN1C(=O)CNC(=O)c2c1ncn2Cc1ccccc1
4. CCCN1CC(=O)N(CCC)c2ncn(Cc3ccccc3)c2C1=O

(A)
1. 9.1 µM
2. 81 µM
3. 151 µM
4. 52 µM

For each of the compounds below, state Ki.
1. CCCN1C(=O)CNC(=O)c2[nH]cnc21
2. CN1CC(=O)N(C)c2ncn(C)c2C1=O
3. CCN1CC(=O)N(CC)c2[nH]cnc2C1=O
4. Cn1c(=O)c2c(ncn2Cc2ccccc2)n(C)c1=O
5. CCCN1CC(=O)N(CCC)c2ncn(C)c2C1=O

(A)
1: >> 250 uM; 2: >> 250 uM; 3: > 250 µM; 4: 46 µM; 5: > 250 µM

For each of the compounds below, state Ki.
1. CC(C)Cn1c(=O)n(C)c(=O)c2c1ncn2Cc1ccccc1
2. CN1CC(=O)N(C)c2ncn(Cc3ccccc3)c2C1=O

(A)
["32 µM", "> 250 µM"]

====

I'd appreciate it if you could supply Ki values for the items below.
TESTED SYSTEM: Adenosine A2 receptor (Rattus norvegicus, UniProt P29276+P30543)
METHOD DESCRIPTION: Antagonism of N-ethylcarboxamido adenosine-stimulated adenylate cyclase associated with stimulation of Adenosine A2 receptor of rat PC12 membranes
Type: functional, cell membranes, Membrane
PROTOCOL CONDITIONS: pc-12
Answers are plain numbers, in µM.

CN1CC(=O)N(C)c2ncn(Cc3ccccc3)c2C1=O	120
CC(C)CN1C(=O)CN(C)C(=O)c2c1ncn2Cc1ccccc1	116
CCCN1CC(=O)N(CCC)c2ncn(Cc3ccccc3)c2C1=O	47
CCN1CC(=O)N(CC)c2ncn(Cc3ccccc3)c2C1=O	76

# Ki (compound: `CCCn1c(=O)c2c(ncn2Cc2ccccc2)n(CCC)c1=O` ) is 0.88

====

TESTED SYSTEM: UniProt P25099
Sequence (P25099 whole entry): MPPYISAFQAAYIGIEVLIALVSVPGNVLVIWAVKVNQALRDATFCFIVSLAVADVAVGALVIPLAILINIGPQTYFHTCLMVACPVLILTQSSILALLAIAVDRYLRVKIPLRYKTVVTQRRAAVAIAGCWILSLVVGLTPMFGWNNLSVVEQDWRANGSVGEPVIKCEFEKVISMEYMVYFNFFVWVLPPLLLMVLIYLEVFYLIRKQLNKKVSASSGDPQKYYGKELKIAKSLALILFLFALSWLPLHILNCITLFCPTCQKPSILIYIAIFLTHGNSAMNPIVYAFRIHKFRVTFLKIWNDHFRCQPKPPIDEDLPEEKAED
pKi: −log10 of the molar value.
Assign Fulfilled whenever pKi does not fall below 4; assign Not fulfilled whenever it does.

Some entries whose results are on file:
CCN1CC(=O)N(CC)c2nc[nH]c2C1=O	Not fulfilled
CC(C)Cn1c(=O)n(C)c(=O)c2nc[nH]c21 [ISOBUTYLMETHYLXANTHINE]	Fulfilled
CCCN1CC(=O)N(CCC)c2ncn(Cc3ccccc3)c2C1=O	Fulfilled
CCCN1C(=O)CNC(=O)c2c1ncn2Cc1ccccc1	Fulfilled

(Q) Exam item: decide whether the reported pKi for `CCCN1CC(=O)N(CCC)c2ncn(C)c2C1=O` is at least 4.
(A) Not fulfilled

(Q) Exam item: decide whether the reported pKi for `CCCN1C(=O)CNC(=O)c2[nH]cnc21` is at least 4.
(A) Not fulfilled

(Q) Exam item: decide whether the reported pKi for `CN1CC(=O)N(C)c2nc[nH]c2C1=O` is at least 4.
(A) Not fulfilled

(Q) Exam item: decide whether the reported pKi for `CCN1CC(=O)N(CC)c2ncn(C)c2C1=O` is at least 4.
(A) Not fulfilled

(Q) Exam item: decide whether the reported pKi for `CCN1CC(=O)N(CC)c2ncn(Cc3ccccc3)c2C1=O` is at least 4.
(A) Fulfilled

====

TESTED SYSTEM: Adenosine A2 receptor (Rattus norvegicus, UniProt P29276+P30543)
METHOD DESCRIPTION: Binding affinity for Adenosine A2 receptor from rat striatum using [3H]NECA as radioligand
Format: protein assay
ENDPOINT NAME: Ki

CC(C)CN1C(=O)CN(C)C(=O)c2c1ncn2Cc1ccccc1	140 µM
CN1C(=O)CNC(=O)c2c1ncn2C	>> 250 uM

For each of the molecules below, state Ki.
1. CC(C)CN1C(=O)CN(C)C(=O)c2[nH]cnc21
2. CCN1CC(=O)N(CC)c2ncn(C)c2C1=O
3. Cn1cnc2c1c(=O)[nH]c(=O)n2C [THEOBROMINE]
4. CN1CC(=O)N(C)c2[nH]cnc2C1=O

(A)
>> 250 uM
> 250 µM
> 250 µM
>> 250 uM

====

I'd appreciate it if you could supply inhibition values for the items below.
TESTED SYSTEM: Adenosine A2 receptor (Rattus norvegicus) (UniProt P29276+P30543)
METHOD DESCRIPTION: Inhibition of [3H]NECA binding to Adenosine A2 receptor in rat striatal membrane
Format: cell membranes
Design: concentration or dose not given beside the values
PROTOCOL CONDITIONS: Striatum, concentration not given here

Past entries and their recorded results:
CN1C(=O)CNC(=O)c2c1ncn2C	11%
CCN1CC(=O)N(CC)c2ncn(C)c2C1=O	17%

Could you now consider this next molecule?
# inhibition (molecule: Cn1cnc2c1c(=O)[nH]c(=O)n2C [THEOBROMINE] ) is 40%

====

TESTED SYSTEM: Adenosine receptor A1 (Rattus norvegicus) (UniProt P25099)
Sequence (whole entry): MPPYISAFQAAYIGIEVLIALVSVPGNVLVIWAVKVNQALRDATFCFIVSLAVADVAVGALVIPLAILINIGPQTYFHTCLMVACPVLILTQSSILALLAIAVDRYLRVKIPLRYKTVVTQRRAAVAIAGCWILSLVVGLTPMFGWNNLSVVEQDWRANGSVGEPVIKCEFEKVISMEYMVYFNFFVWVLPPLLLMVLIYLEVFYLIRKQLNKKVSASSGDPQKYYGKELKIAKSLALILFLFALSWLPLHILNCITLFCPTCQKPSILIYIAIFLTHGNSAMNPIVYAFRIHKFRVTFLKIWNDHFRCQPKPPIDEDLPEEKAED
METHOD DESCRIPTION: Inhibition of [3H]PIA binding to Adenosine A1 receptor in rat cerebral cortical membrane
Assay type: cell membranes
Design: concentration or dose not given beside the values
PROTOCOL CONDITIONS: concentration not given here
I'd appreciate it if you could supply inhibition values for the items below.
Give bare numbers, in %.

CN1C(=O)CNC(=O)c2c1ncn2C	10
CCN1CC(=O)N(CC)c2[nH]cnc2C1=O	40
CN1CC(=O)N(C)c2ncn(C)c2C1=O	10
CN1CC(=O)N(C)c2[nH]cnc2C1=O	30

For each of the compounds below, state inhibition.
1. CCN1CC(=O)N(CC)c2ncn(C)c2C1=O
2. CCCN1CC(=O)N(CCC)c2ncn(C)c2C1=O

(A)
1. 40
2. 40

====

TESTED SYSTEM: Adenosine A2 receptor (Rattus norvegicus) (UniProt P29276+P30543)
METHOD DESCRIPTION: Inhibition of [3H]NECA binding to Adenosine A2 receptor in rat striatal membrane
Assay type: cell membranes
Set-up: concentration or dose not given beside the values
PROTOCOL CONDITIONS: Striatum, concentration not given here
I'd appreciate it if you could supply inhibition values for the items below.

Past entries and their recorded results:
CCCN1CC(=O)N(CCC)c2ncn(C)c2C1=O	23%
CN1CC(=O)N(C)c2[nH]cnc2C1=O	9%
CN1CC(=O)N(C)c2ncn(Cc3ccccc3)c2C1=O	30%

For each of the molecules below, state inhibition.
1. CCCN1C(=O)CNC(=O)c2[nH]cnc21
2. CCN1CC(=O)N(CC)c2[nH]cnc2C1=O
3. CN1CC(=O)N(C)c2ncn(C)c2C1=O
4. CC(C)CN1C(=O)CN(C)C(=O)c2[nH]cnc21

(A)
1: 11%; 2: 20%; 3: 9%; 4: 15%
